Molecular target: T1, cyno FcRn/b2M (cyno, UniProt Q8SPV9 24-297; Q8SPW0 21-119, biotinylated)
T1 construct: bought recombinant biotinylated protein (Immunitrack ITF05 or ACRO FCM-C82W5); also called cFcRn; cFcRn/cb2M
T1 sequence (Q8SPV9 24-297 limits assumed, chain 1 of 2): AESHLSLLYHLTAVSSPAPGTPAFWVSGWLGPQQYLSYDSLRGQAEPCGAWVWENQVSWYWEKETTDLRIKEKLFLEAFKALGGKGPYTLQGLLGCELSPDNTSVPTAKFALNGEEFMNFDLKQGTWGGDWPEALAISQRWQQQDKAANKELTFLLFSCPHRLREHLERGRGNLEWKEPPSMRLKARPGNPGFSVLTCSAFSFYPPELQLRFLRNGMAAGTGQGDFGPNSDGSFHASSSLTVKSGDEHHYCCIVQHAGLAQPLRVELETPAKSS
T1 sequence (Q8SPW0 21-119 limits assumed, chain 2 of 2): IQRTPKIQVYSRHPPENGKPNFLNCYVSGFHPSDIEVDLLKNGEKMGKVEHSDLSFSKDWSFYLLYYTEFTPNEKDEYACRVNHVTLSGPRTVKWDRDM
Experiment: SPR pH 7.4;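 further: surface plasmon resonance kinetics, periplasmic extracts diluted 1:10 flowed over immobilized target at 25 °C, 120 s association then 600–3600 s dissociation, buffer with 150 mM NaCl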
readout.type: koff (s⁻¹)

a: T0263018B11 T28P (VHH, name in Kabat numbering, FLAG3-His6 tagged) VHH: EVQLVESGGGVVQPGGSLRLSCAASGFPFSSYAMYWVRQAPGKGLEWVSAISSGGGSTDYADSVKGRFTISRDNSKNTLYLQMNSLRPEDTALYYCAADTLYTSLTWYSYWGQGTLVTVSS
b: T0263018B11 S30N (VHH, name in Kabat numbering, FLAG3-His6 tagged) VHH: EVQLVESGGGVVQPGGSLRLSCAASGFTFNSYAMYWVRQAPGKGLEWVSAISSGGGSTDYADSVKGRFTISRDNSKNTLYLQMNSLRPEDTALYYCAADTLYTSLTWYSYWGQGTLVTVSS
c: T0263018B11 T96F (VHH, name in Kabat numbering, FLAG3-His6 tagged) VHH: EVQLVESGGGVVQPGGSLRLSCAASGFTFSSYAMYWVRQAPGKGLEWVSAISSGGGSTDYADSVKGRFTISRDNSKNTLYLQMNSLRPEDTALYYCAADFLYTSLTWYSYWGQGTLVTVSS
d: T0263018B11 S52G (VHH, name in Kabat numbering, FLAG3-His6 tagged) VHH: EVQLVESGGGVVQPGGSLRLSCAASGFTFSSYAMYWVRQAPGKGLEWVSAIGSGGGSTDYADSVKGRFTISRDNSKNTLYLQMNSLRPEDTALYYCAADTLYTSLTWYSYWGQGTLVTVSS
Put the binders in ascending order of koff. // format: requested-order list of labels
d, a, b, c
(d: 0.011 s⁻¹, a: 0.033 s⁻¹, b: 0.061 s⁻¹, c: 0.2 s⁻¹)
